Source: PubChem BioAssay (NCATS)

- PROTOCOL_DESCRIPTION: qHTS for Inhibitors of the Aldehyde Dehydrogenase Family (ALDH1A2, ALDH1A3, ALDH2, ALDH3A1) (AID 2061307); note: nearly all actives have a fitted effect of over 50% in size
- STATED_CONDITIONS: ALDH inhibition qHTS; series mostly up to 50.3 µM
Records with an inconclusive call do not appear. Activity calls are given as the source filed them. Calls come from the whole dose curve; as a rule, active = well fitted inhibition curve with a large enough effect; inconclusive = small, poorly fitted or top-dose-only effect; inactive = no such curve, though single readings can be large or run the other way.
Log the outcome using a class from active, inactive

Worked examples follow.
MOLECULE: COc1ccc(NC(=S)N=Nc2c(O)[nH]c3ccccc23)cc1
ASSIGNED_LABEL: inactive
--
MOLECULE: CC(=O)Nc1ccc(OCc2cccc(C3Nc4ccccc4C(=O)N3Cc3ccco3)c2)cc1 (stereo unspecified)
ASSIGNED_LABEL: active
--
MOLECULE: CC(Sc1nc2nn(C3COC3)cc2c(=O)n1-c1ccccc1)c1ccccn1 (stereo unspecified)
ASSIGNED_LABEL: inactive
--
MOLECULE: O=C(Nc1nnc(-c2ccccn2)o1)c1ccc(Cl)cc1Cl
ASSIGNED_LABEL: active
--
MOLECULE: Cn1sc(=O)n(Cc2ccccc2)c1=O
ASSIGNED_LABEL: active

Q: Test call, this molecule: CC(=O)c1c(C)[nH]c2ccc(O)cc12
Ans: inactive

Q: Test call, this molecule: CCN1CCN(C(=S)c2ccc([N+](=O)[O-])cc2)CC1
Ans: inactive

Q: Test call, this molecule: CC(=O)N1CCc2cc(-c3nc(NC(=O)Cc4ccc5c(c4)OCO5)sc3C)ccc21
Ans: active

Q: Test call, this molecule: Cc1ccc(-c2ccccc2C=O)c(C)c1
Ans: inactive

Q: Test call, this molecule: O=C(Nc1nnc(Cc2ccccc2)s1)c1ccc(F)c(F)c1
Ans: inactive

Q: Test call, this molecule: COc1cccc(CNc2ccc(S(=O)(=O)Nc3ccc(C)nc3)cc2)c1O
Ans: inactive

====

- PROTOCOL_DESCRIPTION: qHTS for Inhibitors of the Aldehyde Dehydrogenase Family (ALDH1A2, ALDH1A3, ALDH2, ALDH3A1) (AID 2061307); note: nearly all actives have a fitted effect of over 50% in size; for Potency: test system not described further here; potency is the fitted concentration of half-maximal effect
- STATED_CONDITIONS: ALDH inhibition qHTS; series mostly up to 50.3 µM
Records with an inconclusive call do not appear. The source made the active and inactive calls. Calls follow the shape of the dose curve; as a rule, active = well fitted inhibition curve with a large enough effect; inconclusive = small, poorly fitted or top-dose-only effect; inactive = no such curve, though single readings can be large or run the other way.
MEASURED_PROPERTY: Potency

COMPOUND: NCC(=O)Nc1cc(O)cc(-c2nn3c(=O)cc(N4CCNCC4)nc3s2)c1
Potency: inactive
--
COMPOUND: O=C1C(=O)N(Cc2ccccc2)c2ccccc21
Potency: 1790 nM (active)
--
COMPOUND: Cc1cc(C)nc(NC(=S)N2CC3CN(c4ncc(C(F)(F)F)cc4Cl)CC3C2)c1 (stereo not given)
Potency: inactive
--
COMPOUND: Cc1cccc(NC(=O)C2CC(=O)N(c3ccc(S(=O)(=O)N(C)C)cc3)C2)n1 (stereo not given)
Potency: inactive
--
COMPOUND: N#Cc1cccnc1SC1=NS(=O)(=O)c2ccccc21
Potency: 891 nM (active)

Q: What value of Potency has been recorded for this entry: CCOC(=O)Cc1ccc(NC(=O)n2ncc3cc(Cl)ccc32)cc1
Ans: inactive

Q: What value of Potency has been recorded for this entry: O=C(Nc1ncc(Cc2ccc(C(F)(F)F)cc2)s1)c1ccc(-c2ccccc2[N+](=O)[O-])o1
Ans: 12700 nM (active)

Q: What value of Potency has been recorded for this entry: O=C(CCCCc1cn(-c2cc3ccc(O)cc3oc2=O)nn1)NCCOCCOCCOc1ccc(-n2ncc3c2CCCC3NC(=O)c2ccccn2)cc1 (stereo not given)
Ans: 2820 nM (active)

Q: What value of Potency has been recorded for this entry: CS(=O)Cc1cccc(C(=O)Nc2cccc3cccnc23)c1 (stereo not given)
Ans: inactive

Q: What value of Potency has been recorded for this entry: CCOCCNC(=O)N1CCN(c2nc(C)cs2)CC1
Ans: 14100 nM (active)
